- TARGET_SYSTEM: RBM39 and the DCAF15 complex (RBM39-Flag / His-DCAF15-DDA1-DDB1) (Homo sapiens (Human), UniProt Q14498+Q66K64)
- ASSAY_SUMMARY: DCAF15 RBM39 complex formation TR-FRET assay
- Assay type: binding
- RUN_PARAMETERS: RBM39(R150-D331) 3xFlag 50 nM, His-DCAF15-DDA1-DDB1 10 nM, 60 min room temperature
PROPERTY_MEASURED: pEC50
Give bare numbers, as −log10 of the molar value.

Take a look at these entries with their results.
COMPOUND	pEC50
CCN(CC)C(=O)c1csc(S(=O)(=O)Nc2ccc(C)c3c(C#N)c[nH]c23)n1 [Compound 73]	6.13
Cc1nc(S(=O)(=O)Nc2cccc3c(C#N)c[nH]c23)cs1	6.03
Cc1ccc(NS(=O)(=O)c2ncc(C(=O)N3CCOCC3)s2)c2[nH]cc(C#N)c12	5.87
Cc1nc(S(=O)(=O)Nc2cccc3c(C#N)c[nH]c23)sc1C	6.17
Cc1scnc1S(=O)(=O)Nc1ccc(C)c2c(C#N)c[nH]c12	5.82
Cc1ccc(NS(=O)(=O)c2nc(C(=O)N3CCCCC3)cs2)c2[nH]cc(C#N)c12	6.08
Cc1ccc(NS(=O)(=O)c2ncc(-c3cn[nH]c3)s2)c2[nH]cc(C#N)c12	6.47
CCc1ncc(S(=O)(=O)Nc2cccc3c(C#N)c[nH]c23)s1	7.12

Endpoint output: pEC50 of Cc1ccc(NS(=O)(=O)c2csc(C(F)F)n2)c2[nH]cc(C#N)c12 . Value?
6.98
